- Tested on: HLA-A*0201 (human)
- Test: competition with 125I-labelled standard peptide for purified HLA, gel filtration
- Stated conditions: scale: ratio
Value kind: binding affinity ratio

Record excerpt, results attached:
binder="SVELAHYDV (modifications not checked) [PSM peptide … (position 107, 9 amino acids)]" value_kind="binding affinity ratio" result_number=0.0001
binder="SMKHPQEMKT (modifications not checked) [PSM peptide … (position 615, 10 amino acids)]" value_kind="binding affinity ratio" result_number=0.0001

1 = SIINEDGNEI (modifications not checked) [PSM peptide … (position 129, 10 amino acids)]
2 = SLSLGFLFL (modifications not checked) [PAP peptide … (position 13, 9 amino acids)]
Exercise: Given the listed items, does 1 or 2 have the lesser reported binding affinity ratio? Identify your pick by its label.
Key: 1
